What growth was measured for each of the following?
System: PC-3 prostate
Assay: NCI-60 one-dose screen, 48 h (100 = growth as untreated, 0 = no growth, -100 = all killed)
Conditions: 10 µM unless noted
About 83,000 compounds went through this panel and 20% of them were active in at least one assay; those are over-represented in the sample as a whole. The source made the active and inactive calls. The calls were made as follows: active = growth percent below 10; inactive = the rest.

Incoming: Looking for the measured growth of "CC(=O)c1cc2ccccc2o1" , can you help?
Outgoing: 99.9% (inactive)

Incoming: Look up growth for this compound: CCN(CC)C(CC(=O)c1ccccc1)C(=O)c1ccccc1 (stereo not given)
Outgoing: 101% (inactive)

Incoming: Consider the compound "CC(C)(C)OC(=O)NCCc1ccc(N)cc1" and give its measured growth.
Outgoing: 89.5% (inactive)

Incoming: Looking for the measured growth of "CN(C)C(=N)N=C(N)N" , can you help?
Outgoing: 104% (inactive)

Incoming: Endpoint output: growth of "CC(=O)c1cccc(OC(=O)c2ccccc2)c1" . Value?
Outgoing: 90.9% (inactive)

Incoming: Endpoint output: growth of "Nc1ccc2ccc(NS(=O)(=O)N3CCCCC3)cc2c1" . Value?
Outgoing: 43.6% (inactive)

Incoming: What value of growth has been recorded for this entry: CCC(C)NC(=O)c1ccccc1C (stereo not given)
Outgoing: 101% (inactive)

Incoming: I would be grateful if you could share the reported growth for "Cc1c(O)nc(N)[nH]c1=O" .
Outgoing: 101% (inactive)

Incoming: I have this compound here, O=C1C=CC(n2cc(F)c(=O)[nH]c2=O)O1 (stereo not given) , and I need its recorded growth.
Outgoing: 92.9% (inactive)

Incoming: Returns the measured growth for the input compound. Input: "CC(=O)Nc1ccc2oc(=O)ccc2c1"
Outgoing: 100% (inactive)
